Tested on: TNFα
experiment-description: cells
Assay type: cell-based, human
run-parameters: Homo sapiens, Monocyte, LPS-stimulated human monocytes, TNFα by TR-FRET; read-out: EC50 TNF
readout-label: pEC50
pEC50 is a log-scale quantity: -log10 of the concentration expressed in molar.

Reported pEC50 ( CC(C)(O)[C@H](F)CNC(=O)c1cnc(-c2ccc3cc(C#N)cnn23)cc1NC1CCC2(CCC(=O)N2)CC1 (stereo partly shown) [Example 832] ) = 6.88

Reported pEC50 ( COC(=O)N1CCOC[C@@H]1CNc1cc(-c2ccc3cc(C#N)cnn23)ncc1C(=O)NC[C@@H](F)C(C)(C)O [Example 919] ) = 6.15

Reported pEC50 ( CC1(O)CN(C(=O)CNC(=O)c2cnc(-c3ccc4cc(C#N)cnn34)cc2NC23CCC(O)(CC2)CC3)C1 [Example 954] ) = 6.67

Reported pEC50 ( CC(C)Oc1cncc(Nc2cc(-c3ccc4cc(C#N)cnn34)ncc2C(=O)NC[C@@H](F)C(C)(C)O)c1 [Example 851] ) = 7.92

Reported pEC50 ( CC(C)(O)[C@H](F)CNC(=O)c1cnc(-c2ccc3cc(C#N)cnn23)cc1Nc1ccc2c(c1)CNC2 [Example 863] ) = 7.13

Reported pEC50 ( CCOc1cc(Nc2cc(-c3ccc4cc(C#N)cnn34)ncc2C(=O)NC[C@@H](F)C(C)(C)O)ccn1 [Example 847] ) = 7.16

Reported pEC50 ( COc1cnc(Nc2cc(-c3ccc4cc(C#N)cnn34)ncc2C(=O)NC[C@@H](F)C(C)(C)O)cn1 [Example 840] ) = 7.77

###

study-system: IRAK4 enzyme (Homo sapiens (Human), UniProt Q9NWZ3)
Sequence (Q9NWZ3 whole entry): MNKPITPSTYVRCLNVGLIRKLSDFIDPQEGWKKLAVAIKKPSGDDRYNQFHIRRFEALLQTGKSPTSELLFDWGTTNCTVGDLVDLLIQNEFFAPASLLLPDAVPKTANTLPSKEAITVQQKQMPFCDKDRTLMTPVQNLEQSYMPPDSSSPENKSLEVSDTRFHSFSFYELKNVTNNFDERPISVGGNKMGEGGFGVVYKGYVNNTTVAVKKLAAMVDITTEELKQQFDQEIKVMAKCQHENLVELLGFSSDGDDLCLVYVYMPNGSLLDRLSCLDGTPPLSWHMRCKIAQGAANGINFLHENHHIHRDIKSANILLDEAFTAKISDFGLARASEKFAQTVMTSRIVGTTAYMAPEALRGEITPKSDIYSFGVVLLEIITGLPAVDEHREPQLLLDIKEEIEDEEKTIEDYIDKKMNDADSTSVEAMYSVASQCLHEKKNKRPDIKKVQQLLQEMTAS
experiment-description: biochemical
Type: biochemical
run-parameters: IRAK4 enzyme, TR-FRET, 500 μM ATP
readout-label: pIC50
pIC50 is a log-scale quantity: -log10 of the concentration expressed in molar.

Reading of pIC50 for CC(C)(O)[C@H](F)CNC(=O)c1cnc(-c2ccc3cc(C#N)cnn23)cc1NC1C2CCC1CN(S(C)(=O)=O)C2 (some centres unmarked) with IRAK4 enzyme (Homo sapiens (Human), UniProt Q9NWZ3): 7.80

Reading of pIC50 for COC(=O)NC[C@H]1CN(c2ccc(Nc3cc(-c4ccc5cc(C#N)cnn45)ncc3C(=O)NC[C@@H](F)C(C)(C)O)cn2)CCO1 with IRAK4 enzyme (Homo sapiens (Human), UniProt Q9NWZ3): 9.00

Reading of pIC50 for CC(C)(O)[C@H](F)CNC(=O)c1cnc(-c2ccc3cc(C#N)cnn23)cc1Nc1nc(C(F)(F)F)cs1 with IRAK4 enzyme (Homo sapiens (Human), UniProt Q9NWZ3): 9.00

Reading of pIC50 for CC(C)(O)[C@H](F)CNC(=O)c1cnc(-c2ccc3cc(C#N)cnn23)cc1Nc1sc2c(c1C(N)=O)CCCC2 with IRAK4 enzyme (Homo sapiens (Human), UniProt Q9NWZ3): 8.40

Reading of pIC50 for CN1CC2C[C@@H](Nc3cc(-c4ccc5cc(C#N)cnn45)ncc3C(=O)NC[C@@H](F)C(C)(C)O)C[C@@H]2C1 (some centres unmarked) with IRAK4 enzyme (Homo sapiens (Human), UniProt Q9NWZ3): 8.70

Reading of pIC50 for CC(C)(O)[C@H](F)CNC(=O)c1cnc(-c2ccc3cc(C#N)cnn23)cc1NC12CC(CNC(=O)C3CC3(F)F)(C1)C2 (some centres unmarked) with IRAK4 enzyme (Homo sapiens (Human), UniProt Q9NWZ3): 9.00

Reading of pIC50 for CC(C)Nc1cc(-c2ccc3cc(C#N)cnn23)ncc1C(=O)N[C@H]1CCC[C@H](O)C1 with IRAK4 enzyme (Homo sapiens (Human), UniProt Q9NWZ3): 8.40

Reading of pIC50 for CC(=O)NC12CCC(NC(=O)c3cnc(-c4ccc5cc(C#N)cnn45)cc3NC(C)C)(CC1)CC2 with IRAK4 enzyme (Homo sapiens (Human), UniProt Q9NWZ3): 9.00

Reading of pIC50 for CC(C)(O)[C@H](F)CNC(=O)c1cnc(-c2ccc3cc(C#N)cnn23)cc1N[C@H]1C[C@H](CNC(=O)C23CC(C2)C3)C1 with IRAK4 enzyme (Homo sapiens (Human), UniProt Q9NWZ3): 8.70

Reading of pIC50 for CC(C)(O)[C@H](F)CNC(=O)c1cnc(-c2ccc3cc(C#N)cnn23)cc1NC[C@H]1CCNC1 with IRAK4 enzyme (Homo sapiens (Human), UniProt Q9NWZ3): 8.30

Reading of pIC50 for CC(=O)NCc1cccc(Nc2cc(-c3ccc4cc(C#N)cnn34)ncc2C(=O)NC[C@@H](F)C(C)(C)O)c1 with IRAK4 enzyme (Homo sapiens (Human), UniProt Q9NWZ3): 9.00
